Assay: plasmodial surface anion channel blockers, osmotic lysis – cell-based, P. falciparum Indochina, OD700, 2 h, primary screen (AID 1155);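 further: lysis reports solute entry through the parasite surface anion channel PSAC; channel blockers reduce lysis of infected cells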
Conditions: P. falciparum Indochina infected erythrocytes, higher = more signal, called active from +8 up or from −8 down
MEASURED ATTRIBUTE: z-score
Please state the value as a number alone, without comment.

Examples with their reported z-score follow.
[
  {
    "COMPOUND": "COC(=O)[C@@]1(Cc2ccc(OC)cc2)[C@H]2c3cc(C(=O)N4CCCC4)n(Cc4ccc(C)o4)c3C[C@H]2CN1C(=O)c1ccccc1",
    "z-score": -0.605
  },
  {
    "COMPOUND": "CC(C)CNC(=O)[C@@]1(c2ccc([N+](=O)[O-])cc2)CC(=O)N(C(C)C)[C@@H]1c1ccc(CO)cc1",
    "z-score": -0.227
  },
  {
    "COMPOUND": "C[N+](C)(C)CCCCCCNC(=O)[C@H]1C[C@H]2C(=O)N3CCC[C@H]3C(=O)N2[C@H]1c1cccc(OCCO)c1",
    "z-score": 0.64
  },
  {
    "COMPOUND": "C[C@]12C(=O)N(CCCO)[C@@H]3C(=O)N(c4ccc(Cl)cc4)CC=CC31O[C@@H]1/C=C\\CCCOC(=O)C12 (some centres not stated)",
    "z-score": 0.396
  },
  {
    "COMPOUND": "COc1ccc([Si](C)(C)[C@H]2[C@H](CCn3cc(CCO)nn3)O[C@@]3(C(=O)N(Cc4cccc(N5C(=O)c6cccc7cccc5c67)c4)c4ccccc43)[C@@H]2C)cc1",
    "z-score": 2.43
  },
  {
    "COMPOUND": "C=CC[C@@]1(C(=O)NCCN2CCOCC2)N=C(c2ccc(OCCCO)cc2)O[C@@H]1c1ccccc1",
    "z-score": 3.03
  }
]

Inquiry: Reported z-score for CN(C)CCCCNC(=O)[C@H]1C[C@H]2C(=O)N[C@@H](CCCC[N+](C)(C)C)C(=O)N2[C@H]1c1cccc(OCCO)c1 : what is it?
Reply text: 0.77

###

Assay: growth of efflux-deficient E. coli DRC39 – strain DRC39, OD650, 24 h, E. coli filamentation inducers, primary screen (AID 1178);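 further: growth measured as culture turbidity by optical density at 650 nm; test concentration not given here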
Settings: E. coli DRC39 acrAB, higher = more signal, called active from +8 up or from −8 down
In this section we review reported z-score values for a set of molecules.
Please state the value as a number alone, without comment.

[
  {
    "CHEMICAL STRUCTURE": "O=C1O[C@H](c2ccccc2)[C@H](c2ccccc2)N2[C@H]1[C@@H](C(=O)NC[C@H](O)c1ccccc1)[C@]1(C(=O)Nc3ccccc31)[C@H]2c1ccccc1OCCO",
    "EXPERIMENTAL VALUE": 0.346
  }
]

Inquiry: Reported z-score for CC(C)C[C@@H]1NC(=O)[C@@H]2C[C@H](C(=O)NCCCC[N+](C)(C)C)[C@H](c3cccc(OCCO)c3)N2C1=O : what is it?
Reply text: -0.234

Inquiry: Reported z-score for CC(C)(C)OC(=O)CC[C@@]1(C(=O)N2CCCCC2)N=C(c2ccc(OCCCO)cc2)O[C@@H]1c1ccccc1CN=[N+]=[N-] : what is it?
Reply text: -0.366

###

Experiment: JC-1 mitochondrial signal, unstimulated adipocytes – cell-based, JC-1 fluorescence, 3T3-L1 adipocytes, 24 h, 100 nL compound, profiling panel (AID 1168); further: test concentration not given here
Conditions: JC-1 mitochondrial fluorescence, higher = more signal, called active from +8 up or from −8 down
Quick rule for you: z-score at -0.3 or higher means Condition met, lower means Condition not met.

Answered examples (10):
[
  {
    "MOLECULE": "COC(=O)C(CC#Cc1ccc2c(c1)[C@]1(C(=O)N2)[C@H](C(=O)N2CCc3cc(OC)c(OC)cc3C2)[C@H]2C(=O)O[C@H](c3ccccc3)[C@H](c3ccccc3)N2[C@@H]1c1ccc(OCCO)cc1)C(=O)OC",
    "ASSIGNED LABEL": "Condition met"
  },
  {
    "MOLECULE": "CN(C)CCCCNC(=O)[C@H]1C[C@H]2C(=O)N[C@@H](CCCC[N+](C)(C)C)C(=O)N2[C@H]1c1cccc(OCCO)c1",
    "ASSIGNED LABEL": "Condition not met"
  },
  {
    "MOLECULE": "COC(=O)[C@]1(Cc2ccccc2CN=[N+]=[N-])N=C(c2ccc(OCCCO)cc2)O[C@@H]1c1ccccc1CN=[N+]=[N-]",
    "ASSIGNED LABEL": "Condition met"
  },
  {
    "MOLECULE": "CC1C=C(CCCO)C=C(C(=O)OCCS(C)(=O)=O)C(C(=O)OCCS(C)(=O)=O)=CN1Cc1cccc(OC(F)(F)F)c1 (centres undefined)",
    "ASSIGNED LABEL": "Condition not met"
  },
  {
    "MOLECULE": "O=C(Nc1cc(Br)ccc1C(=O)NCc1cccc(O)c1)c1ccccc1",
    "ASSIGNED LABEL": "Condition met"
  },
  {
    "MOLECULE": "C=C(CCCC)/C(=C/C[C@@H](OC(=O)c1ccncc1)c1ccccc1OCCO)c1cc(C(=O)OC)ccc1OC",
    "ASSIGNED LABEL": "Condition met"
  },
  {
    "MOLECULE": "NC(=O)NCC#Cc1ccc2c(c1)[C@]1(C(=O)N2)[C@H](c2ccc(OCCO)cc2)N2[C@H](c3ccccc3)[C@H](c3ccccc3)OC(=O)[C@H]2[C@@H]1C(=O)N1CCCCCCC1",
    "ASSIGNED LABEL": "Condition not met"
  },
  {
    "MOLECULE": "COc1ccccc1CN1C(=O)c2ccccc2[C@](Cc2ccccc2I)(C(=O)NCCN2CCOCC2)[C@@H]1c1ccc(CO)cc1",
    "ASSIGNED LABEL": "Condition met"
  },
  {
    "MOLECULE": "CN(C)CCCNC(=O)[C@@]1(Cc2ccccc2I)c2ccccc2C(=O)N(Cc2ccccc2Cl)[C@H]1c1ccc(CO)cc1",
    "ASSIGNED LABEL": "Condition not met"
  },
  {
    "MOLECULE": "COCCCNC(=O)[C@@]1(Cc2ccccc2I)c2ccccc2C(=O)N(Cc2ccccc2Cl)[C@H]1c1ccc(CO)cc1",
    "ASSIGNED LABEL": "Condition met"
  }
]

Inquiry: Hi, just wondering whether COCCOC(=O)N1C(=O)[C@@]2(c3ccccc31)[C@H](c1ccc(OCCO)cc1)N1[C@H](c3ccccc3)[C@H](c3ccccc3)OC(=O)[C@H]1[C@@H]2C(=O)NC[C@H](O)c1ccccc1 shows z-score of -0.3 or higher.
Reply text: Condition met

Inquiry: Hi, just wondering whether C=C(CCCC)/C(=C/C[C@H](OC(=O)c1ccncc1)c1ccc(CO)o1)c1cc(C(=O)OC)ccc1OC shows z-score of -0.3 or higher.
Reply text: Condition not met

Inquiry: Hi, just wondering whether COC(=O)[C@@]1(Cc2ccc(OC)cc2)[C@H]2c3cc(C(=O)N4CCCC4)n(CCF)c3C[C@H]2CN1C(=O)c1ccccc1 shows z-score of -0.3 or higher.
Reply text: Condition not met

Inquiry: Hi, just wondering whether O=C(N1CCOCC1)[C@@]1(CCS(=O)(=O)c2ccccc2)COC(c2ccc(OCCCO)cc2)=N1 shows z-score of -0.3 or higher.
Reply text: Condition not met

###

Experiment: probe aNog binding to arrayed compounds – biochemical, biotinylated probe, 635/667 nm fluorescence, primary screen (AID 1115);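 further: probe is biotinylated aNog protein used at 0.15 µg/mL for 1 h at 4 C; z-score combines 667 nm fluorescence of each spot with its signal to noise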
Conditions: small-molecule microarray, higher = more signal
In this section we review reported composite z-score values for a set of compounds.

Examples with their reported composite z-score follow.
[
  {
    "COMPOUND": "CCN(CC)c1ccc(N2CC=CC34O[C@@H]5/C=C\\CCCOC(=O)C5[C@H]3C(=O)N(CCCCCCO)[C@@H]4C2=O)cc1 (some centres undefined)",
    "EXPERIMENTAL VALUE": -0.0439
  },
  {
    "COMPOUND": "CC(C)CN1C(=O)[C@@]2(Cc3ccccc31)c1ccccc1C(=O)N(Cc1ccccc1)[C@H]2c1ccc(CO)cc1",
    "EXPERIMENTAL VALUE": -0.175
  },
  {
    "COMPOUND": "C=CCC(OC(C)=O)[C@@H]1[C@@H](N(Cc2cc3ccccc3o2)C(=O)Cc2ccc(OC)cc2)c2cc(OCCCO)ccc2N1C(=O)c1ccc(-c2ccccc2)cc1 (some centres undefined)",
    "EXPERIMENTAL VALUE": -0.23
  }
]

Let us examine a further case.
Inquiry: Reported composite z-score for CCOC(=O)C1=CC[C@@H](c2cccc(Br)c2)N(S(=O)(=O)c2ccc(C)cc2)[C@H]1c1ccc([N+](=O)[O-])cc1 : what is it?
Reply text: 0.822

###

Assay: probe aLAP1 signal on lysate-treated microarray – cell lysate, small-molecule microarray, COS7 lysate, primary screen (AID 1124);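 further: lysate comes from COS7 cells expressing LAP1 and is applied at 0.3 µg/mL; score merges spot fluorescence near 667 nm with signal-to-noise over triplicate slides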
Details: probe aLAP1, fluorescence, higher = more signal
MEASURED ATTRIBUTE: composite z-score
Please state the value as a number alone, without comment.

[
  {
    "COMPOUND": "COC(=O)[C@@]1(Cc2ccc(F)cc2)[C@H]2c3cc(C(=O)N4CCCC4)n(Cc4ccccc4)c3C[C@H]2CN1C(=O)c1ccccc1",
    "EXPERIMENTAL VALUE": 0.65
  },
  {
    "COMPOUND": "COc1cccc(C)c1NC(=O)O[C@H]1[C@H](OC(=O)Nc2ccccc2)[C@H](OC(=O)Nc2ccccc2)[C@@H](OC)O[C@@H]1CO",
    "EXPERIMENTAL VALUE": 0.25
  },
  {
    "COMPOUND": "COCCCNC(=O)[C@@H]1c2ccccc2C(=O)N(Cc2cc(F)cc(C(F)(F)F)c2)[C@H]1c1ccc(CO)cc1",
    "EXPERIMENTAL VALUE": -0.438
  },
  {
    "COMPOUND": "COCC(=C=CC[C@@H](O)c1ccccc1OCCO)C[C@@H](O)COCc1ccccc1",
    "EXPERIMENTAL VALUE": 1.04
  },
  {
    "COMPOUND": "COCCOC(=O)N1C(=O)[C@@]2(c3cc(C#CC4(O)CCCCCC4)ccc31)[C@H](C(=O)N1CCN(c3ncccn3)CC1)[C@H]1C(=O)O[C@H](c3ccccc3)[C@H](c3ccccc3)N1[C@@H]2c1ccc(O)cc1",
    "EXPERIMENTAL VALUE": 0.73
  }
]

Inquiry: Reported composite z-score for COc1ccc(C(=O)Nc2ccc(CN3C(=O)[C@]4(O[C@H](CCn5cc([C@H](O)c6ccccc6)nn5)[C@@H]([Si](C)(C)c5ccc(OC)cc5)[C@@H]4C)c4ccccc43)cc2)cc1 : what is it?
Reply text: -0.127

Inquiry: Reported composite z-score for C=C[C@H](C)[C@H](OC(=O)Nc1ccc(SC)cc1)c1ccc(O)c2ccccc12 : what is it?
Reply text: -0.0167

Inquiry: Reported composite z-score for CC(C)CCC[C@@H](C)[C@H]1CC[C@@]2(C)C3=C(CC[C@]12C)[C@@]1(C)CC[C@H](OC(=O)c2ccc(N)cc2)C(C)(C)C1CC3 (stereo not given in full) : what is it?
Reply text: -0.252

Inquiry: Reported composite z-score for O=C(CS)NCCCCCNC(=O)[C@@H]1C[C@@H]2C(=O)N3CCC[C@H]3C(=O)N2[C@@H]1c1ccc(O)cc1 : what is it?
Reply text: 0.363

Inquiry: Reported composite z-score for COc1ccc([Si](C)(C)[C@@H]2[C@@H](CC(=O)N(CCO)Cc3ccccc3)O[C@]3(C(=O)N(C)c4c(Br)cc(C)cc43)[C@H]2C)cc1 : what is it?
Reply text: 0.231

Inquiry: Reported composite z-score for C=C(CCCC)/C(=C/C[C@@H](OC(=O)c1ccncc1)c1ccccc1OCCO)c1cc(C(=O)OC)ccc1OC : what is it?
Reply text: 0.902

# credit: PubChem BioAssay
